system: Fer (mouse); assay: phosphorylation enrichment, bacterial display (enrichment ratio); higher = better substrate or ligand; peptides without Tyr show the background;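 further: frequency after pTyr selection over input frequency; kinase dosed for 20-30% of maximal phosphorylation in three min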
READOUT KIND: phosphorylation enrichment
Answers are plain numbers.

| SEQUENCE | phosphorylation enrichment |
| --- | --- |
| ENAGFYFQVSA | 0.474 |
| CTTIHYNFKCN [TP53_Y234_M237K_YF] | 0.386 |
| GQLIVYAPPEW [CNTN6_Y315_F314V] | 0.619 |
| ALKKPYSVLYK [RPF2_Y59_G60S] | 0.44 |
| SQPASYQRRLL [PPIG_Y320] | 0.286 |

# return phosphorylation enrichment for each item in the list
1. SASRSYSRSRS [SRRM4_Y549]
2. DTLMEYLENPK [CYCS_Y68]
3. HESEIYCKVCY [CSRP3_Y57]
4. WIPIQYPIISE [NOG_Y222]
5. RLNWIYYKDQT [RS1_Y165]
6. ASMAKYFASEI [ACADSB_Y372_YF]
7. RLEGVYGNNID [PTEN_Y46_R47G]
8. NNRVFYGNSDR [RS1_Y177]

Reply:
1: 0.505; 2: 0.677; 3: 2.51; 4: 0.508; 5: 0.844; 6: 0.449; 7: 0.621; 8: 0.338

# return phosphorylation enrichment for each item in the list
1. ALTDNYMYLVI [HAGH_Y61]
2. ADEQIYWQIAA [CSKtide_2014]

Reply:
3.5
2.25

====

molecular target: SHP2-C SH2; assay: SH2 binding enrichment of the phosphorylated peptide, bacterial display (enrichment ratio); higher = better substrate or ligand; peptides without Tyr show the background;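 further: peptide library displayed on the E. coli surface as eCPX fusions, selected cells deep-sequenced, score is each peptide's frequency after selection divided by its frequency in the input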
I'd be grateful if you could share measured SH2 binding enrichment for these entries.
Give bare numbers.

Recorded results for 4 sequences are shown here.
| SEQUENCE | SH2 binding enrichment |
| --- | --- |
| RHYVYYYSYLL [PTEN_Y177_R173H] | 0.906 |
| TLKDVCDDGKY [RPS6KA3_Y483_Y483C] | 0.851 |
| DAVKHYMQFQK [CNGA2_Y395_R399Q] | 0.781 |
| ELTAKYLNFFR [P3H4_Y181_Q186R_YF] | 1.14 |

# return SH2 binding enrichment for each item in the list
1. GSSSSYGQHGS [HRNR_Y517]
2. GHPFAYDWISI [BEST1_Y227_L224P_YF]
3. LGNFNYEQRGA [API5_Y497]

Reply:
[1.43, 0.869, 0.487]

# return SH2 binding enrichment for each item in the list
1. QSPQLYKQLCI [DARS1_Y253_M256L]
2. FADIAYSFRHG [PAH_Y166_N167S_YF]
3. SARFRYLLAEK [LDHB_Y173_M175L]

Reply:
0.625
1.15
0.593

====

tested on: Fer (mouse); assay: phosphorylation enrichment, bacterial display (enrichment ratio); higher = better substrate or ligand; peptides without Tyr show the background;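 further: 11-residue human phosphosite peptides and single-mutation variants displayed on the E. coli surface, counted by deep sequencing, each peptide's frequency after selection divided by its frequency in the unselected input library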;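 further: frequency after pTyr selection over input frequency; kinase dosed for 20-30% of maximal phosphorylation in three min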
READOUT KIND: phosphorylation enrichment
Numbers only.

Recorded results for 8 sequences are shown here.
| SEQUENCE | phosphorylation enrichment |
| --- | --- |
| KLSHLYQDHMQ [WNT5A_Y86_C83S] | 0.647 |
| SNSATYSGSVA [PDLIM5_Y382] | 0.392 |
| MFFSTYDRDND [FGB_Y408] | 0.501 |
| FLNSSYINIST [IL23R_Y178_T175N_YF] | 0.367 |
| GHPFAYDWISI [BEST1_Y227_L224P_YF] | 14.7 |
| IFRASYFRRGD [LTK_Y676_YF] | 0.439 |
| YDGGCYEQLFV [MC4R_Y41_S36Y] | 11.4 |
| RPFFLYVAFHN [SGSH_Y174_D179N] | 0.405 |

# return phosphorylation enrichment for each item in the list
1. CPYNLYAEQLS [HGD_Y40]
2. KLNNEHLELNY [MME_Y497_Y497H]
3. CTTIQYNFMCN [TP53_Y234_H233Q_YF]
4. NDLMEYAKQHG [ASS1_Y163]
5. GENTMYAQVFN [LY9_Y603]
6. IGEGTYRQVFK [CDK13_Y716_G717R_YF]
7. IMAFFYMCDSA [CASD1_Y382_R386S_YF]

Reply:
[1.36, 0.445, 0.485, 0.541, 5.6, 0.474, 0.805]

# return phosphorylation enrichment for each item in the list
1. LRSKQYLRNPP [SHC1_Y315_F312S]
2. KAIMTYVSSFF [ACTN4_Y260_YF]

Reply:
1. 0.413
2. 0.437

# return phosphorylation enrichment for each item in the list
1. SVTCTYSPARN [TP53_Y126_L130R]
2. TRSFDYTEGGD [FGF7_Y58_M59T_YF]
3. QLGLQYSQGLV [EIF2B4_Y214_R209Q]
4. VPLLEYYWDIF [CDAN1_Y712_R714W]
5. SDVCMYRKNIF [SYNE2_Y570_YF]
6. MSRDVYSIDFF [NTRK2_Y702_T704I_YF]

Reply:
[0.554, 0.572, 0.527, 0.521, 0.354, 1.16]

# return phosphorylation enrichment for each item in the list
1. IEELTYIIKQD [STX5_Y137]
2. VDSGVYAVPPP [BCAR1_Y410]
3. TWSPKYTLRSH [STRN3_Y474_N471S]
4. QLHEHYKIHKE [NSMAF_Y626]
5. IKETHYMVDKC
6. GMRHGYGVRQS [JPH2_Y141]

Reply:
[0.411, 5.46, 0.389, 0.563, 0.507, 0.328]
